- target-entity: T1, human C1s (human, UniProt P09871 16-688)
- T1 construct: also called hC1s; serum-derived human C1s (CompTech)
- T1 sequence: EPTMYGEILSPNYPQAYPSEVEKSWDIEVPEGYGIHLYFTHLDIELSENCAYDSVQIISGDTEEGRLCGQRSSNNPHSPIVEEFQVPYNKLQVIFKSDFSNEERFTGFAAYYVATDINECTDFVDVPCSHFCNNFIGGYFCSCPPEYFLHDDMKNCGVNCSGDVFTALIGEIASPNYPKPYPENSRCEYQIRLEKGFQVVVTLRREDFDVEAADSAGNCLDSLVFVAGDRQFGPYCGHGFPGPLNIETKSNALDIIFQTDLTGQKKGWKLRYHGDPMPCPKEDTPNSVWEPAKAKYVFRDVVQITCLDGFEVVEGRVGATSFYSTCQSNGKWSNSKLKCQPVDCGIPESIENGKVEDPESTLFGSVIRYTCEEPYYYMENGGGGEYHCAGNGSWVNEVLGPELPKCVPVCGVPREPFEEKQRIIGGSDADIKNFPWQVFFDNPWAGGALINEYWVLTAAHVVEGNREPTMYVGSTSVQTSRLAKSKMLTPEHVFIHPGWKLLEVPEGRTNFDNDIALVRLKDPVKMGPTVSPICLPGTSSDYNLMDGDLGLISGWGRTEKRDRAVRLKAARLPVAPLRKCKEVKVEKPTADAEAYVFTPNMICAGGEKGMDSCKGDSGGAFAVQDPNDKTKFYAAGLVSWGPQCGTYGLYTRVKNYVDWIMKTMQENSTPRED
- protocol-summary: SPR, Ab captured; pH 5.8, 1.2 mM Ca
# Lookup of reported pKd keyed by entry
# pKd: negative log10 of molar concentration; output just the value

Reference set (3 entries):
[[record]]
binder = "C1_IPN92H0038-SG4GK/IPN93L0023-SK1 (antibody, human IgG4 S228P, kappa, name in Kabat numbering, V domains shown, also called IPN92H0038/IPN93L0023) VH: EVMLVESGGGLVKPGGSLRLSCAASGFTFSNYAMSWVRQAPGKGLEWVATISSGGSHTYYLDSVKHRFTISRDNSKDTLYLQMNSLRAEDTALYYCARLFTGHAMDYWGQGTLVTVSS VL: QIVLTQSPATLSLSPGERATLSCTASSSVSSSYLHWYQQKPGKAPKLWIYSTSNLASGVPSRFSGSGSGTDYTLTISSLQPEDFATYYCHQYYRHPPITFGQGTKLEIKR"
test_value = 8.27

[[record]]
binder = "C1_IPN92H0026-SG4GK/IPN93L0021-SK1 (antibody, human IgG4 S228P, kappa, name in Kabat numbering, V domains shown, also called IPN92H0026/IPN93L0021) VH: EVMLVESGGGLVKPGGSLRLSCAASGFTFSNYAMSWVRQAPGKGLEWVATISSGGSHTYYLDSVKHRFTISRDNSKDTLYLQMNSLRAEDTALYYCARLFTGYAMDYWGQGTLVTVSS VL: QIVLTQSPATLSLSPGERATLSCTASSSVSSSYLHWYQQKPGKAPKLWIYSTSNLASGVPSRFSGSGSGTDYTLTISSLQPEDFATYYCHQYHRLPPITFGQGTKLEIKR"
test_value = 8.71

[[record]]
binder = "C1_IPN92H0038-SG4GK/IPN93L0030-SK1 (antibody, human IgG4 S228P, kappa, name in Kabat numbering, V domains shown, also called IPN92H0038/IPN93L0030) VH: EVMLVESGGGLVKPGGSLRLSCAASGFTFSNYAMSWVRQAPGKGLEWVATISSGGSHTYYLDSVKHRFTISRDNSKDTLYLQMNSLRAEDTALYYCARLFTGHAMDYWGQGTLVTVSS VL: QIVLTQSPATLSLSPGERATLSCTASSSVSSSYLHWYQQKPGKAPKLWIYSTSNLASGVPSRFSGSGSGTDYTLTISSLQPEDFATYYCHQYYRHHPITFGQGTKLEIKR"
test_value = 7.15


The binder listed as C1_IPN92H0026-SG4GK/IPN93L0024-SK1 (antibody, human IgG4 S228P, kappa, name in Kabat numbering, V domains shown, also called IPN92H0026/IPN93L0024) VH: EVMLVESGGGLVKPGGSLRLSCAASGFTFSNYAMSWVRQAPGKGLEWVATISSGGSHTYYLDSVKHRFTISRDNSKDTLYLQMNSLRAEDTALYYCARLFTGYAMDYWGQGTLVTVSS VL: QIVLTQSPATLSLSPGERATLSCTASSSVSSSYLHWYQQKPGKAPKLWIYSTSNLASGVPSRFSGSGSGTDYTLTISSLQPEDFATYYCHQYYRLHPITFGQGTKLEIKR has a reported pKd of 8.50

The binder listed as C1_IPN009VH2-SG4GK/IPN93L0029-SK1 (antibody, human IgG4 S228P, kappa, name in Kabat numbering, V domains shown, also called IPN009VH2/IPN93L0029) VH: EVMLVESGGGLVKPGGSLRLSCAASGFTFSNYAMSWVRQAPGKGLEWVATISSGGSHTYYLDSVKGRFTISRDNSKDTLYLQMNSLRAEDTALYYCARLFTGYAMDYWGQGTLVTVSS VL: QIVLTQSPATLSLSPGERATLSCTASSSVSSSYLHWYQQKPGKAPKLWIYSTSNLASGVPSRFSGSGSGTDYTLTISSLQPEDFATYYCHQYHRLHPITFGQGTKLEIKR has a reported pKd of 7.81
